Source: ChEMBL document CHEMBL5143672

Test system: Salmonella typhimurium
procedure text: Antibacterial activity against Salmonella enterica serovar typhimurium SL1344 (SE03) assessed as inhibition of bacterial growth by broth microdilution method
Format: functional, Salmonella enterica subsp. enterica serovar Typhimurium
measured parameter: MIC

Field: example entries. Status: answers known.
> print(dat)
                               smiles.entry         target.of.assay  meas.value
1  O=C1/C(=C/c2ccc(C(F)(F)F)cc2)COC/C1=C\c1ccc(C(F)(F)F)cc1  Salmonella typhimurium  > 64 µg/mL
2  Cc1cccc(/C=C2\COC/C(=C\c3cccc(C)c3)C2=O)c1  Salmonella typhimurium  > 64 µg/mL

Next item in the queue.
Ask | Name the recorded MIC for COc1ccccc1/C=C1\CSC/C(=C\c2ccccc2OC)C1=O .
Reply | > 64 µg/mL

###

Reported RFU values follow for various compounds
procedure text: Inhibition of Multidrug resistance efflux pump in Staphylococcus aureus 272123 assessed as relative fluorescence index using ethidium bromide as substrate at 50 uM by fluorescence based analysis

Field: example entries. Status: answers known.
> print(dat)
                               smiles.entry  measured.parameter  meas.value
1  O=C1/C(=C/c2ccccc2Br)COC/C1=C\c1ccccc1Br                 RFU       -0.05
2  Cc1ccc(/C=C2\COC/C(=C\c3ccc(C)cc3)C2=O)cc1                 RFU       -0.24

Ask | Name the recorded RFU for COc1ccccc1/C=C1\CCC/C(=C\c2ccccc2OC)C1=O .
Reply | 0.48

###

System: Salmonella enterica subsp. enterica serovar Typhimurium
procedure text: Inhibition of Multidrug resistance efflux pump in Salmonella enterica serovar typhimurium SL1344 (SE03) assessed as relative fluorescence index using ethidium bromide as substrate at 50 uM by fluorescence based analysis
Binarize RFU at 0.05; below is MET, at or above is NOT MET.

> print(dat)
                               smiles.entry    label
1  O=C1/C(=C/c2cccc(F)c2)COC/C1=C\c1cccc(F)c1      MET
2  Cc1cccc(/C=C2\COC/C(=C\c3cccc(C)c3)C2=O)c1      MET
3  COc1ccccc1/C=C1\COC/C(=C\c2ccccc2OC)C1=O  NOT MET
4  COc1ccc(/C=C2\COC/C(=C\c3ccc(OC)c(OC)c3)C2=O)cc1OC      MET
5  O=C1/C(=C/c2ccc(F)cc2)COC/C1=C\c1ccc(F)cc1  NOT MET

Ask | Problem: For the compound COc1ccccc1/C=C1\CSC/C(=C\c2ccccc2OC)C1=O , is RFU under 0.05?
Reply | MET
